Biological target: KRasG12C (M1-K169, biotinylated on the N-terminus) (Homo sapiens (Human), UniProt P01116, G12C)
Assay: Covalent competition assay: scintillation proximity assay (SPA) quantifying covalent modification of KRASG12C
Settings: competition with radiolabeled covalent probe (Compound B/Compound A), 2 hours incubation, 10 nM KRasG12C
pIC50: −log10 of the molar value.
measured endpoint: pIC50

Example results:
{"compound": "C=CC(=O)N1CC2(CC(n3nc(N4CCN(C[C@H]5CCCO5)CC45CCC5)c(-c4c(Cl)c(C)cc5[nH]ncc45)c3C)C2)C1 (single isomer, unassigned) [Example 153a]", "pIC50": "< 5.30"}
{"compound": "[2H]C([2H])([2H])c1c(-c2c(Cl)c(Cl)cc3[nH]ncc23)c(N2CC[C@@H](CN3CCOCC3)CC2(C)C)nn1C1CC2(C1)CN(C(=O)C=C)C2 (single isomer, unassigned) [Example 224a]", "pIC50": "< 5.30"}

Please look at the following compound next.
Prompt: I have this compound here, C=CC(=O)N1CC2(CC(n3nc(N4CCN(CCOC)C[C@@]4(C)C(F)F)c(-c4c(Cl)c(C)cc5[nH]ncc45)c3C)C2)C1 (single isomer, unassigned) [Example 179a] , and I need its recorded pIC50.
Completion: < 5.30

###

Biological target: KRasG12C (M1-K169, biotinylated on the N-terminus) (Homo sapiens (Human), UniProt P01116, G12C)
Assay: Covalent competition assay: scintillation proximity assay (SPA) quantifying covalent modification of KRASG12C
Details: competition with radiolabeled covalent probe (Compound B/Compound A), 2 hours incubation, 10 nM KRasG12C
pIC50: −log10 of the molar value.
pIC50 listing for selected compounds.

{"compound": "C=CC(=O)N1CC2(CC(n3nc(N4CCN(CCOC)CC4(C)C)c(-c4c(Cl)c(C)cc5[nH]ncc45)c3C)C2)C1 (single isomer, unassigned) [Example 170a]", "result": "< 4.30"}

Prompt: Give the measured pIC50 of Cc1cc2[nH]ncc2c(-c2c(N3CCN(C4COC4)CC34CCC4)nn(C3CC4(C3)CN(C(=O)/C=C/CF)C4)c2C)c1Cl (single isomer, unassigned) [Example 113a] .
Completion: < 5.30

Prompt: Value lookup for pIC50; key = C=CC(=O)N1CC2(CC(n3nc(N4CCN(C5COC5)C5COCC54)c(-c4c(Cl)c(C)cc5[nH]ncc45)c3C)C2)C1 (stereo not drawn) [Example 137a]
Completion: < 5.30

###

Molecular target: KRasG12C (M1-K169, biotinylated on the N-terminus) (Homo sapiens (Human), UniProt P01116, G12C)
Assay: Covalent competition assay: scintillation proximity assay (SPA) quantifying covalent modification of KRASG12C
Conditions: competition with radiolabeled covalent probe (Compound B/Compound A), 2 hours incubation, 10 nM KRasG12C
Method: Cells were harvested by centrifugation and frozen at −80° C. until further processing. […] The cells were lysed by 4 passages through an Avestin Emulsiflex at about 20000 psi and insoluble debris removed by centrifugation and filtered through a 0.45 µm Durapore membrane (Millipore). […] Eluted protein fractions were analyzed by Novex NuPage 4-12% PAGE. […] Positive fractions were determined by PAGE (Novex NuPage 4-12% BisTris) analysis. […]
Measured IC50 of individual entries

Answered examples (2):
{"compound": "C=CC(=O)N1CC2(CC(n3nc(N4CCN(C(=O)OCCOC)CC45CCC5)c(-c4c(Cl)c(C)cc5[nH]ncc45)c3C)C2)C1 (single isomer, unassigned) [Example 122a]", "measured endpoint": "IC50", "result": "> 5000 nM"}
{"compound": "C=CC(=O)N1CC2(CC(n3nc(N4CC[C@@H](CN5CC6C5CCN6C5COC5)CC4(C)C)c(-c4c(Cl)c(Cl)cc5[nH]ncc45)c3C)C2)C1 (single isomer, unassigned) [Example 277b]", "measured endpoint": "IC50", "result": "< 5 nM"}

Turning now to a further record.
Prompt: What does the record list as IC50 for C=CC(=O)N1CC2(CC(n3nc(N4CC[C@@H](CN5CCN(C6COC6)C[C@@H]5COC)CC4(C)C)c(-c4c(Cl)c(Cl)cc5[nH]ncc45)c3C)C2)C1 (single isomer, unassigned) [Example 320b] ?
Completion: < 5 nM
